Provenance of the data: patent US7582610B2

molecular target: mMC1R (Mus musculus, UniProt Q01727); assay: Functional bioassay, CRE/β-galactosidase reporter in HEK-293 cells stably expressing mMC1R; conditions: slight agonist = some stimulatory response at 100 μM, not enough to determine an EC50
Sequence (Q01727 whole entry): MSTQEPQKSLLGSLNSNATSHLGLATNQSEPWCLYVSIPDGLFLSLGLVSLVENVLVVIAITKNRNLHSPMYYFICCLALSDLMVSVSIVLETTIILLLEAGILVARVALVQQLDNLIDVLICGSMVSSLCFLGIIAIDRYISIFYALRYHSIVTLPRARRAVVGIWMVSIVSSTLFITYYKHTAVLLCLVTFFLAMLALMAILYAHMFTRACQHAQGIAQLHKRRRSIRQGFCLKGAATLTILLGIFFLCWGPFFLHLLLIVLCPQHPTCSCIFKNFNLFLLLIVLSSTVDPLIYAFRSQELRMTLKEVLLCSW
Where a SMILES comes first, the peptide text is derived from it. Bridges are numbered along the chain shown (N, C = ends). [ ]: non-standard residue; d: D form. Nle = CCCC[C@H](N)C(=O)O
parameterMeasured: pharmacology in words at mMC1R

1) CCCC[C@H](NC(=O)[C@H](CO)NC(=O)[C@H](Cc1ccc(O)cc1)NC(=O)[C@H](CO)NC(C)=O)C(=O)N[C@@H](CCC(=O)O)C(=O)N[C@@H](Cc1ccccc1)C(=O)N[C@@H](Cc1ccccc1)C(=O)N[C@@H](CCCNC(=N)N)C(=O)NCC(=O)N[C@@H](CCCCN)C(=O)N1CCC[C@H]1C(=O)N[C@H](C(N)=O)C(C)C [SEQ ID NO: 13] (Ac-SYS[Nle]EFFRGKPV-NH2) = Partial agonist
2) CCCC[C@H](NC(C)=O)C(=O)N[C@H]1CC(=O)NCCCC[C@@H](C(N)=O)NC(=O)[C@H](Cc2ccccc2)NC(=O)[C@H](Cc2ccccc2)NC(=O)[C@H](CCCNC(=N)N)NC(=O)[C@H](Cc2c[nH]cn2)NC1=O [SEQ ID NO: 20, Ac-Nle-c[Asp-His-Arg-Phe-Phe-Lys]] (Ac-[Nle]DHRFFK-NH2; lactam 2-7; C-terminus assumed) = Partial agonist
3) CCCC[C@H](NC(=O)[C@H](CO)NC(=O)[C@H](Cc1ccc(O)cc1)NC(=O)[C@H](CO)NC(C)=O)C(=O)N[C@@H](CCC(=O)O)C(=O)N[C@@H](Cc1c[nH]cn1)C(=O)N[C@@H](Cc1ccccc1)C(=O)N[C@@H](Cc1ccccc1)C(=O)N[C@@H](CCCNC(=N)N)C(=O)NCC(=O)N[C@@H](CCCCN)C(=O)N1CCC[C@H]1C(=O)N[C@H](C(N)=O)C(C)C [SEQ ID NO: 14] (Ac-SYS[Nle]EHFFRGKPV-NH2) = Partial agonist

----------
biological target: mMC5R (Mus musculus, UniProt P41149); assay: Functional bioassay, CRE/β-galactosidase reporter in HEK-293 cells stably expressing mMC5R
Sequence (P41149 whole entry): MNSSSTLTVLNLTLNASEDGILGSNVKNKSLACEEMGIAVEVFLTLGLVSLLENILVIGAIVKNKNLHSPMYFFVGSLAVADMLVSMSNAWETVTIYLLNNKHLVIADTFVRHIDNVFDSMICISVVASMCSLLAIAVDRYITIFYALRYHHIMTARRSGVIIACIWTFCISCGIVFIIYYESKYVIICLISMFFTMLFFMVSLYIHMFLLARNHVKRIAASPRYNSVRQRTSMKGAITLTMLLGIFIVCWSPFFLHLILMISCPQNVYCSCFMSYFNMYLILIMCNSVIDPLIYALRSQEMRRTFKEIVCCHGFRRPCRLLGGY
Where a SMILES comes first, the peptide text is derived from it. Bridges are numbered along the chain shown (N, C = ends). [ ]: non-standard residue; d: D form. Nle = CCCC[C@H](N)C(=O)O; Dap = NC[C@H](N)C(=O)O
So I've got a bunch of compounds here, and I need their EC50 values.

Before answering, review these 2 worked examples.
1) C[C@@H]1NC(=O)[C@H](C)NC(=O)[C@@H](NC(=O)[C@@H](N)Cc2ccc(O)cc2)CC(=O)NC[C@@H](C(=O)N[C@@H](Cc2ccc(O)cc2)C(N)=O)NC(=O)[C@H](Cc2ccccc2)NC(=O)[C@H](C)NC(=O)[C@H](CC(N)=O)NC(=O)[C@H](C)NC1=O [SEQ ID NO: 2] (H-YDAAANAF[Dap]Y-NH2; lactam 2-9) = > 100 µM
2) CCCC[C@H](NC(=O)[C@H](CO)NC(=O)[C@H](Cc1ccc(O)cc1)NC(=O)[C@H](CO)NC(C)=O)C(=O)N[C@@H](CCC(=O)O)C(=O)N[C@@H](Cc1ccccc1)C(=O)N[C@@H](Cc1ccccc1)C(=O)N[C@@H](CCCNC(=N)N)C(=O)NCC(=O)N[C@@H](CCCCN)C(=O)N1CCC[C@H]1C(=O)N[C@H](C(N)=O)C(C)C [SEQ ID NO: 13] (Ac-SYS[Nle]EFFRGKPV-NH2) = > 100 µM

Here is the next item to consider.
Task: Item CCCC[C@H](NC(C)=O)C(=O)N[C@H]1CC(=O)NCCCC[C@@H](C(N)=O)NC(=O)[C@H](C)NC(=O)[C@H](C)NC(=O)[C@H](C)NC(=O)[C@H](Cc2c[nH]cn2)NC1=O [SEQ ID NO: 19, Ac-Nle-c[Asp-His-Ala-Ala-Ala-Lys]] (Ac-[Nle]DHAAAK-NH2; lactam 2-7) has what recorded EC50?
Result: > 100 µM

----------
target: mMC3R (Mus musculus); assay: Functional bioassay, CRE/β-galactosidase reporter in HEK-293 cells stably expressing mMC3R
Sequence (P33033 whole entry): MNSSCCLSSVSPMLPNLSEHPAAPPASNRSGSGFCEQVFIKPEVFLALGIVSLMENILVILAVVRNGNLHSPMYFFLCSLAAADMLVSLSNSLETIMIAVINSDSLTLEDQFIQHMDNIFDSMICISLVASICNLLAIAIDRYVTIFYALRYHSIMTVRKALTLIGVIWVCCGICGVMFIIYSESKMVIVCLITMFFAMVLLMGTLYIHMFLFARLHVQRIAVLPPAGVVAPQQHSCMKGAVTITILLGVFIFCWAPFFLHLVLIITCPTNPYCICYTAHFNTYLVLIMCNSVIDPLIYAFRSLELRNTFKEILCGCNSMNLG
pEC50: −log10 of the molar value. Where a SMILES comes first, the peptide text is derived from it. Bridges are numbered along the chain shown (N, C = ends). [ ]: non-standard residue; d: D form. Nle = CCCC[C@H](N)C(=O)O
Assign pEC50 to each entry below.

1. CCCC[C@H](NC(C)=O)C(=O)N[C@H]1CC(=O)NCCCC[C@@H](C(N)=O)NC(=O)[C@H](Cc2ccccc2)NC(=O)[C@H](Cc2ccccc2)NC(=O)[C@@H](CCCNC(=N)N)NC(=O)[C@H](Cc2c[nH]cn2)NC1=O [SEQ ID NO: 21, Ac-Nle-c[Asp-His-DArg-Phe-Phe-Lys]] (Ac-[Nle]DH[dR]FFK-NH2; lactam 2-7) = < 4.00

Task: Hi! What's the reported pEC50 for CCCC[C@H](NC(=O)[C@H](CO)NC(=O)[C@H](Cc1ccc(O)cc1)NC(=O)[C@H](CO)NC(C)=O)C(=O)N[C@@H](CCC(=O)O)C(=O)N[C@@H](Cc1c[nH]cn1)C(=O)N[C@@H](C)C(=O)N[C@@H](C)C(=O)N[C@@H](C)C(=O)NCC(=O)N[C@@H](CCCCN)C(=O)N1CCC[C@H]1C(=O)N[C@H](C(N)=O)C(C)C [SEQ ID NO: 12] (Ac-SYS[Nle]EHAAAGKPV-NH2) on mMC3R (Mus musculus)?
Result: < 4.00

----------
biological target: mMC3R (Mus musculus); test: Functional bioassay, CRE/β-galactosidase reporter in HEK-293 cells stably expressing mMC3R; settings: slight agonist = some stimulatory response at 100 μM, not enough to determine an EC50
Where a SMILES comes first, the peptide text is derived from it. Bridges are numbered along the chain shown (N, C = ends). [ ]: non-standard residue; d: D form. Nle = CCCC[C@H](N)C(=O)O; Dap = NC[C@H](N)C(=O)O
parameterMeasured: pharmacology in words at mMC3R

Use these answered entries as a reference point.
1) CCCC[C@H](NC(=O)[C@H](CO)NC(=O)[C@H](Cc1ccc(O)cc1)NC(=O)[C@H](CO)NC(C)=O)C(=O)N[C@@H](CCC(=O)O)C(=O)N[C@@H](Cc1c[nH]cn1)C(=O)N[C@@H](Cc1ccccc1)C(=O)N[C@@H](Cc1ccccc1)C(=O)N[C@@H](CCCNC(=N)N)C(=O)NCC(=O)N[C@@H](CCCCN)C(=O)N1CCC[C@H]1C(=O)N[C@H](C(N)=O)C(C)C [SEQ ID NO: 14] (Ac-SYS[Nle]EHFFRGKPV-NH2) = Partial agonist
2) C[C@@H]1NC(=O)[C@H](CC(N)=O)NC(=O)[C@H](Cc2c[nH]c3ccccc23)NC(=O)[C@H](CCCNC(=N)N)NC(=O)[C@@H](Cc2ccccc2)NC(=O)[C@H](Cc2ccccc2)NC(=O)[C@@H](NC(=O)[C@@H](N)Cc2ccc(O)cc2)CC(=O)NC[C@@H](C(=O)N[C@@H](Cc2ccc(O)cc2)C(N)=O)NC(=O)[C@H](Cc2ccccc2)NC1=O [SEQ ID NO: 29] (H-YDF[dF]RWNAF[Dap]Y-NH2; lactam 2-10) = Partial agonist
3) C[C@@H]1NC(=O)[C@H](CC(N)=O)NC(=O)[C@H](Cc2c[nH]c3ccccc23)NC(=O)[C@H](CCCNC(=N)N)NC(=O)[C@@H](Cc2ccccc2)NC(=O)[C@@H](NC(=O)[C@@H](N)Cc2ccc(O)cc2)CC(=O)NC[C@@H](C(=O)N[C@@H](Cc2ccc(O)cc2)C(N)=O)NC(=O)[C@H](Cc2ccccc2)NC1=O [SEQ ID NO: 7] (H-YD[dF]RWNAF[Dap]Y-NH2; lactam 2-9) = Slight agonist
4) C[C@@H]1NC(=O)[C@H](CC(N)=O)NC(=O)[C@H](Cc2ccccc2)NC(=O)[C@H](Cc2ccccc2)NC(=O)[C@H](CCCNC(=N)N)NC(=O)[C@H](Cc2c[nH]cn2)NC(=O)[C@@H](NC(=O)[C@@H](N)Cc2ccc(O)cc2)CC(=O)NC[C@@H](C(=O)N[C@@H](Cc2ccc(O)cc2)C(N)=O)NC(=O)[C@H](Cc2ccccc2)NC1=O [SEQ ID NO: 8] (H-YDHRFFNAF[Dap]Y-NH2; lactam 2-10) = Slight agonist
5) C[C@@H]1NC(=O)[C@H](CC(N)=O)NC(=O)[C@H](Cc2c[nH]c3ccccc23)NC(=O)[C@H](CCCNC(=N)N)NC(=O)[C@@H](Cc2ccccc2)NC(=O)[C@@H]2CCCN2C(=O)[C@@H](NC(=O)[C@@H](N)Cc2ccc(O)cc2)CC(=O)NC[C@@H](C(=O)N[C@@H](Cc2ccc(O)cc2)C(N)=O)NC(=O)[C@H](Cc2ccccc2)NC1=O [SEQ ID NO: 28] (H-YDP[dF]RWNAF[Dap]Y-NH2; lactam 2-10) = Partial agonist

Turning to the following compound.
Task: Can you look up the measured pharmacology in words at mMC3R of C[C@@H]1NC(=O)[C@H](CC(N)=O)NC(=O)[C@H](Cc2c[nH]c3ccccc23)NC(=O)[C@H](CCCNC(=N)N)NC(=O)[C@H](C)NC(=O)[C@H](Cc2c[nH]cn2)NC(=O)[C@@H](NC(=O)[C@@H](N)Cc2ccc(O)cc2)CC(=O)NC[C@@H](C(=O)N[C@@H](Cc2ccc(O)cc2)C(N)=O)NC(=O)[C@H](Cc2ccccc2)NC1=O [SEQ ID NO: 25] for me?
Result: Partial agonist
